pIC50: −log10 of the molar value.
// cross-source set; read-out = pIC50; system = Aminopeptidase N (Sus scrofa, UniProt P15145)
Sequence (P15145 whole entry): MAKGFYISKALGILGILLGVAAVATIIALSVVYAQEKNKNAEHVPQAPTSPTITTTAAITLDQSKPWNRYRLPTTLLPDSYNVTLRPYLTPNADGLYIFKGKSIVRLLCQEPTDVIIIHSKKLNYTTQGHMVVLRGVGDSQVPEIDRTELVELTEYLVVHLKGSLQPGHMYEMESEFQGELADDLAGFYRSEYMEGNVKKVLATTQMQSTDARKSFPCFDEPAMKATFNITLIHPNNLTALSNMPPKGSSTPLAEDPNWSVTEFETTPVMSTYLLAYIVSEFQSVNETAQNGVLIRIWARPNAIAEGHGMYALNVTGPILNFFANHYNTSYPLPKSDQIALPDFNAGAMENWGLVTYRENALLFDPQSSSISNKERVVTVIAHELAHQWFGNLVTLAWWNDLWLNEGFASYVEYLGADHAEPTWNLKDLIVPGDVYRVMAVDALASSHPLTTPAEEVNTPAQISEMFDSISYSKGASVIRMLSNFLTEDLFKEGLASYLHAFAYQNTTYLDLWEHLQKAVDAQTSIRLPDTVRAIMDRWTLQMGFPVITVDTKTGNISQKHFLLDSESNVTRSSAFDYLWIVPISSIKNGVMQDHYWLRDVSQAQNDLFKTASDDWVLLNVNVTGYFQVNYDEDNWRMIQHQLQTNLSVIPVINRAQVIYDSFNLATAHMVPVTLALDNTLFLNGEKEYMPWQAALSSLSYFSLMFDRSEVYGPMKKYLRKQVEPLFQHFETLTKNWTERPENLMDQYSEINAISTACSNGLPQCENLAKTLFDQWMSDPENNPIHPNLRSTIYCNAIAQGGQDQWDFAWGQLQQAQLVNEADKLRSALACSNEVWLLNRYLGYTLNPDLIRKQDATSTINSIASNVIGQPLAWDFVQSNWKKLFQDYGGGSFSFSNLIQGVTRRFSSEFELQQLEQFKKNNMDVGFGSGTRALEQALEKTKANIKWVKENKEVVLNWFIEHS

# molecule, reading_qualifier, pIC50
measured = [
    ("O=C(/C=C/c1ccccc1)N[C@H](CC(=O)Nc1cccc([N+](=O)[O-])c1)C(=O)O", "=", 2.75),
    ("C[C@H](NC(=O)CN1C(=O)CC[C@H](NC(=O)[C@@H](N)Cc2ccccc2)C1=O)C(=O)O", "=", 3.96),
    ("N[C@@H](Cc1ccccc1)C(=O)N[C@H]1CCC(=O)N(CC(=O)Nc2ccc(F)c(F)c2)C1=O", "=", 4.27),
    ("CC(C)C[C@H](N)C(=O)NCC(=O)N[C@H]1C[C@@H](C(=O)NO)N(S(=O)(=O)c2ccc(Cl)cc2)C1.Cl", "=", 4.14),
    ("COc1cc(C(=O)N[C@H](CCC(=O)O)C(=O)Nc2ccc(S(=O)(=O)Nc3nccs3)cc2)cc(OC)c1OC", "=", 4.40),
    ("CCCNC(=O)[C@H](N)[C@@H](O)c1ccc([N+](=O)[O-])cc1", "=", 3.74),
    ("CC(C)C[C@H](NC(=O)Nc1ccccc1O)C(=O)NO", "=", 4.92),
    ("CC(C)C[C@H](NC(=O)N[C@@H](CC(C)C)C(=O)NC[C@H](N)Cc1ccccc1)C(=O)O", "=", 3.85),
    ("CC(C)CC(C(=O)NO)C(=O)N1CCC(Cc2ccccc2)CC1 (configuration not stated)", "=", 6.34),
    ("O=C(NC1CCN(c2ncnc3[nH]ccc23)CC1)N[C@H](Cc1ccccc1)C(=O)NO", "=", 6.05),
    ("C[C@H](NC(=O)CN1C(=O)CC[C@H](NC(=O)[C@@H](N)Cc2ccccc2)C1=O)C(=O)OCc1ccccc1", "=", 4.04),
    ("CC(C)C[C@H](NC(=O)Nc1cccc(C(F)(F)F)c1)C(=O)NO", "=", 5.71),
    ("N[C@@H](CNC(=O)[C@H](CS)NC(=O)N[C@@H](Cc1ccccc1)C(=O)O)Cc1ccccc1", "=", 5.01),
    ("CC(C)C[C@@H](NC(=O)N1CCN(c2ncnc3[nH]ccc23)CC1)C(=O)NO", "=", 6.68),
    ("COc1cc(C(=O)N[C@H]2CCC(=O)N(CC(=O)O)C2=O)cc(OC)c1OC", "=", 4.30),
    ("CC[C@H](C)[C@H](NC(=O)NC(C)(C)C)C(=O)NO", "<", 4.00),
    ("COC(=O)[C@H](CCCCNC(=O)OCc1ccccc1)NC(=O)CN1C(=O)CC[C@H](NC(=O)c2cc(OC)c(OC)c(OC)c2)C1=O", "=", 4.42),
    ("COc1cc(C(=O)N[C@H](CCC(=O)O)C(=O)NNC(=O)c2nccs2)cc(OC)c1OC", "=", 4.06),
    ("O=C(N[C@@H](CCCCNC(=O)OCc1ccccc1)C(=O)NO)N[C@@H](Cc1ccccc1)C(=O)NO", "=", 4.84),
    ("Cc1ccc(S(=O)(=O)N2C[C@@H](NC(=O)CNC(=O)[C@@H](N)Cc3ccccc3)C[C@H]2C(=O)NO)cc1.Cl", "=", 4.06),
    ("NCCC[C@H](N)C(=O)NC[C@H](N)Cc1ccccc1", "=", 4.30),
    ("Cc1nc2ccccc2n(CC(=O)NNC(=O)c2c(Cl)cccc2Cl)c1=O", "=", 3.52),
    ("COC(=O)[C@](C)(Cl)NC(=O)CN1C(=O)CC[C@H](NC(=O)c2cc(OC)c(OC)c(OC)c2)C1=O", "=", 4.30),
    ("CC(C)[C@H](NC(=O)NC(C)(C)C)C(=O)NO", "<", 4.00),
    ("O=C(NCc1ccccc1)N[C@@H](CCCCNC(=O)OCc1ccccc1)C(=O)NO", "=", 4.79),
    ("O=C(NO)/C(=C\\c1ccccc1)C(=O)NCc1ccncc1", "=", 5.70),
    ("COC(=O)[C@H](CCSC)NC(=O)CN1C(=O)CC[C@H](NC(=O)c2cc(OC)c(OC)c(OC)c2)C1=O", "=", 4.68),
    ("COC(=O)[C@H](C)NC(=O)N[C@@H](CCCCNC(=O)OCc1ccccc1)C(=O)OC", "<", 4.30),
    ("Cc1ccc(S(=O)(=O)N2CC3(C[C@H]2C(=O)N/N=C/c2ccccc2[N+](=O)[O-])SCCS3)cc1", "<", 3.00),
    ("O=C(CN1C(=O)CC[C@H](NC(=O)c2cc(O)c(O)c(O)c2)C1=O)N[C@@H](Cc1ccccc1)C(=O)O", "=", 4.99),
    ("C/C(=N\\NC(=O)Cn1c(=O)c(C)nc2ccccc21)c1ccc(Cl)cc1", "=", 3.90),
    ("CCOC(=O)C1C(=O)CC(c2cccnc2)N(c2ccccc2)C1c1cccnc1 (configuration not stated)", "<", 4.00),
    ("O=C(NCc1ccccc1)N[C@@H](Cc1ccccc1)C(=O)NO", "=", 5.25),
    ("CC(C)C[C@H](NC(=O)Nc1c(C(C)C)cccc1C(C)C)C(=O)NO", "=", 7.30),
    ("CC(C)(C)OC(=O)N[C@H](Cc1ccccc1)C(=O)CC(=O)OCc1ccccc1", "<", 3.00),
    ("CC(C)[C@H](NC(=O)N[C@@H](CCCCNC(=O)OCc1ccccc1)C(=O)O)C(=O)O", "<", 4.30),
    ("Nc1ccc([C@H](O)[C@@H](N)CNC(=O)[C@@H](N)Cc2ccc(O)cc2)cc1", "=", 3.94),
]
